Test system: Leptosphaeria nodorum (LEPTNO)
Experiment: In vitro fungitoxicity assay against Leptosphaeria nodorum in copper-minus / copper-plus liquid medium
Type: cell-based
Settings: Parastagonospora nodorum; test compound 0.05 μg/mL, copper-minus medium, 25° C., 72 h, growth by light scattering; read-out: LEPTNO % Inhn. Minus Copper Observed
property-label: inhibition of growth at 0.05 µg/mL (%)

compound="Cc1c(C(=O)N/N=C/c2ccccc2O)[nH]c2c([N+](=O)[O-])cccc12 [Compound 4]" property_label="inhibition of growth at 0.05 µg/mL" result_unit=% reported_result=11.3
compound="CN1CCCCC1C(=O)N/N=C/c1cc(Cl)cc(Cl)c1O (centres unmarked) [Compound 54]" property_label="inhibition of growth at 0.05 µg/mL" result_unit=% reported_result=0
compound="Cc1ccc(C(=O)N/N=C/c2cc(Br)cc(Cl)c2O)cn1 [Compound 8]" property_label="inhibition of growth at 0.05 µg/mL" result_unit=% reported_result=0
compound="O=C(N/N=C/c1cc(Cl)ccc1O)c1cccs1 [Compound 5]" property_label="inhibition of growth at 0.05 µg/mL" result_unit=% reported_result=0
compound="Cc1nc(C)c(C(=O)N/N=C/c2cc(Br)cc(Br)c2O)s1 [Compound 30]" property_label="inhibition of growth at 0.05 µg/mL" result_unit=% reported_result=1
compound="C/C(=N\\NC(=O)c1ccsc1)c1cc(Br)cc(Br)c1O [Compound 53]" property_label="inhibition of growth at 0.05 µg/mL" result_unit=% reported_result=7.6
compound="C/C(=N\\NC(=O)c1ccc(Cl)s1)c1cc(Cl)cc(Cl)c1O [Compound 44]" property_label="inhibition of growth at 0.05 µg/mL" result_unit=% reported_result=2
compound="Cc1nc(C)c(C(=O)N/N=C/c2cc(Cl)cc(Cl)c2O)s1 [Compound 25]" property_label="inhibition of growth at 0.05 µg/mL" result_unit=% reported_result=0
compound="C/C(=N\\NC(=O)c1cn(-c2ccccc2)nc1O)c1ccccc1O [Compound 36]" property_label="inhibition of growth at 0.05 µg/mL" result_unit=% reported_result=9.2
compound="O=C(N/N=C/c1ccccc1O)c1sc2ccccc2c1Cl [Compound 19]" property_label="inhibition of growth at 0.05 µg/mL" result_unit=% reported_result=0
compound="CCn1nc(C)cc1C(=O)N/N=C/c1cc(Cl)cc(Cl)c1O [Compound 16]" property_label="inhibition of growth at 0.05 µg/mL" result_unit=% reported_result=3.5
compound="O=C(N/N=C/c1ccccc1O)c1snnc1-c1ccccc1 [Compound 22]" property_label="inhibition of growth at 0.05 µg/mL" result_unit=% reported_result=9.6
compound="C/C(=N\\NC(=O)c1csc(C)c1)c1cc(Cl)cc(Cl)c1O [Compound 45]" property_label="inhibition of growth at 0.05 µg/mL" result_unit=% reported_result=3.7
compound="C/C(=N\\NC(=O)c1cn(-c2ccccc2)nc1O)c1cc(Cl)cc(Cl)c1O [Compound 42]" property_label="inhibition of growth at 0.05 µg/mL" result_unit=% reported_result=3.5
compound="O=C(N/N=C/c1ccccc1)c1cnn(-c2ccc(Cl)cc2)c1C(F)(F)F [Compound 18]" property_label="inhibition of growth at 0.05 µg/mL" result_unit=% reported_result=0
compound="Cc1cc(C(=O)N/N=C/c2ccccc2O)cs1 [Compound 24]" property_label="inhibition of growth at 0.05 µg/mL" result_unit=% reported_result=2.9
compound="O=C(N/N=C/c1cc(Br)cc(Br)c1O)c1ccc(Cl)s1 [Compound 31]" property_label="inhibition of growth at 0.05 µg/mL" result_unit=% reported_result=4.9
compound="O=C(N/N=C/c1cc(Cl)cc(Cl)c1O)c1ccc(Cl)s1 [Compound 26]" property_label="inhibition of growth at 0.05 µg/mL" result_unit=% reported_result=2.7
compound="C=CCc1cccc(/C=N/NC(=O)c2ccc(Br)o2)c1O [Compound 11]" property_label="inhibition of growth at 0.05 µg/mL" result_unit=% reported_result=12.9
compound="O=C(N/N=C/c1cc(Cl)cc(Cl)c1O)c1ccsc1 [Compound 28]" property_label="inhibition of growth at 0.05 µg/mL" result_unit=% reported_result=4.4

====

Reported melting point by item:
property-label: melting point

compound="C/C(=N\\NC(=O)c1cn(-c2ccccc2)nc1O)c1cc(Cl)cc(Cl)c1O [Compound 42]" reported_result="269 to 271 °C"
compound="C/C(=N\\NC(=O)c1cnn(-c2ccc(Cl)cc2)c1C(F)(F)F)c1cc(Br)cc(Br)c1O [Compound 48]" reported_result="121 to 125 °C"
compound="Cc1cc(C(=O)N/N=C/c2cc(Cl)cc(Cl)c2O)c2cc(Br)ccc2n1 [Compound 1]" reported_result="265 to 267 °C"
compound="C/C(=N\\NC(=O)c1cc(C)nc2ccc(Br)cc12)c1ccccc1O [Compound 2]" reported_result="251 to 254 °C"

====

Reported melting point by item:
property-label: melting point

compound=C/C(=N\NC(=O)c1csc(C)c1)c1cc(Cl)cc(Cl)c1O reported_result="218 to 220 °C"
compound=O=C(N/N=C/c1cc(Br)cc(Br)c1O)c1ccc(Cl)s1 reported_result="247 to 248 °C"
compound=C/C(=N\NC(=O)c1ccsc1)c1ccccc1O reported_result="148 to 150 °C"
compound=C/C(=N\NC(=O)c1csc(C)c1)c1ccccc1O reported_result="158 to 160 °C"
compound=O=C(N/N=C/c1ccccc1O)c1ccc(Cl)s1 reported_result="228 to 230 °C"
compound=C/C(=N\NC(=O)c1ccc(Cl)s1)c1ccccc1O reported_result="204 to 205 °C"
compound=O=C(N/N=C/c1cc(Cl)cc(Cl)c1O)c1ccc(Cl)s1 reported_result="248 to 250 °C"
compound=C/C(=N\NC(=O)c1csc(C)c1)c1cc(Br)cc(Br)c1O reported_result="237 to 239 °C"
compound=Cn1cc(C(=O)N/N=C/c2cc(Cl)cc(Cl)c2O)c2ccccc21 reported_result="215 to 217 °C"
compound=C/C(=N\NC(=O)c1ccc(Cl)s1)c1cc(Cl)cc(Cl)c1O reported_result="221 to 224 °C"
compound=O=C(N/N=C/c1ccccc1O)c1snnc1-c1ccccc1 reported_result="191 to 192 °C"
compound=Cc1cc(C(=O)N/N=C/c2cc(Cl)cc(Cl)c2O)cs1 reported_result="189 to 191 °C"
compound=O=C(N/N=C/c1cc(Cl)cc(Cl)c1O)c1cnn(-c2ccc(Cl)cc2)c1C(F)(F)F reported_result="216 to 217 °C"
compound=Cc1cc(C(=O)N/N=C/c2ccccc2O)c2cc(Br)ccc2n1 reported_result="270 to 275 °C"
compound="CN1CCCCC1C(=O)N/N=C/c1cc(Cl)cc(Cl)c1O (stereo not shown)" reported_result="107 to 110 °C"
compound=C/C(=N\NC(=O)c1ccsc1)c1cc(Cl)cc(Cl)c1O reported_result="230 to 232 °C"
compound=C/C(=N\NC(=O)c1ccsc1)c1cc(Br)cc(Br)c1O reported_result="251 to 253 °C"
compound=Cc1nc(C)c(C(=O)N/N=C/c2cc(Br)cc(Br)c2O)s1 reported_result="225 to 226 °C"
compound=Cc1cc(C(=O)N/N=C/c2ccccc2O)cs1 reported_result="180 to 182 °C"
compound=O=C(N/N=C/c1cc(Br)cc(Br)c1O)c1cnn(-c2ccc(Cl)cc2)c1C(F)(F)F reported_result="237 to 238 °C"
compound=Cc1occc1C(=O)N/N=C/c1cc(Br)cc(Br)c1O reported_result="270 to 272 °C"
compound=C/C(=N\NC(=O)c1sc(C)nc1C)c1ccccc1O reported_result="202 to 204 °C"
compound=O=C(N/N=C/c1cc(Br)cc(Br)c1O)c1ccsc1 reported_result="236 to 237 °C"
compound=C/C(=N\NC(=O)c1sc(C)nc1C)c1cc(Cl)cc(Cl)c1O reported_result="208 to 209 °C"
compound=O=C(N/N=C/c1cc(Cl)cc(Cl)c1O)c1ccsc1 reported_result="315 to 318 °C"
compound=Cc1nn(-c2ccccc2)nc1C(=O)N/N=C/c1ccccc1O reported_result="231 to 233 °C"
compound=O=C(N/N=C/c1ccccc1O)c1cc2ccccc2s1 reported_result="220 to 221 °C"
compound=Cc1cc(C(=O)N/N=C/c2cc(Br)cc(Br)c2O)cs1 reported_result="203 to 205 °C"
compound=C/C(=N\NC(=O)c1cn(-c2ccccc2)nc1O)c1ccccc1O reported_result="276 to 277 °C"
compound=O=C(N/N=C/c1ccccc1)c1cnn(-c2ccc(Cl)cc2)c1C(F)(F)F reported_result="205 to 207 °C"
compound=CCn1nc(C)cc1C(=O)N/N=C/c1cc(Cl)cc(Cl)c1O reported_result="221 to 222 °C"
compound=O=C(N/N=C/c1cc(Cl)cc(Cl)c1O)c1sc(C(F)(F)F)nc1C(F)(F)F reported_result="189 to 190 °C"
compound=C/C(=N\NC(=O)c1ccoc1C)c1cc(Cl)cc(Cl)c1O reported_result="212 to 215 °C"
compound=C/C(=N\NC(=O)c1ccoc1C)c1cc(Br)cc(Br)c1O reported_result="201 to 204 °C"
compound=C/C(=N\NC(=O)c1ccc(Cl)s1)c1cc(Br)cc(Br)c1O reported_result="253 to 255 °C"
compound=Cc1nc(C)c(C(=O)N/N=C/c2cc(Cl)cc(Cl)c2O)s1 reported_result="217 to 219 °C"
compound=C/C(=N\NC(=O)c1sc(C)nc1C)c1cc(Br)cc(Br)c1O reported_result="221 to 223 °C"
compound=C/C(=N\NC(=O)c1cnn(-c2ccc(Cl)cc2)c1C(F)(F)F)c1ccccc1O reported_result="201 to 202 °C"
compound=Cc1c(C(=O)N/N=C/c2ccccc2O)[nH]c2c([N+](=O)[O-])cccc12 reported_result="296 to 299 °C"
compound=C/C(=N\NC(=O)c1cnn(-c2ccc(Cl)cc2)c1C(F)(F)F)c1cc(Cl)cc(Cl)c1O reported_result="209 to 211 °C"
